experiment: In vivo bioavailability evaluation (pharmacokinetics and oral bioavailability); settings: plasma, 10 mg/kg; male Lewis rat; iv 1 mg salt/kg, oral 10 mg salt/kg; read-out: F % (bioavailability)
# Lookup of reported bioavailability keyed by entry
Result Type: bioavailability (%)

compound="CC1=NC(=Cc2[nH]c(-c3ccc[nH]3)cc2OCc2ccccc2)C=C1.Cl [PNU 168727]" result_type=bioavailability recorded_measurement=35
compound="CCCCCC1=NC(=Cc2[nH]c(-c3ccc[nH]3)cc2OCc2ccccc2)C=C1.Cl [PNU 169417]" result_type=bioavailability recorded_measurement=18
